# Test system: Saccharomyces cerevisiae;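 also: PSI is a weighted mean of sequencing reads over stability bins, variants kept only with over 10 reads, mCherry proximal and sfGFP distal, peptide attached via GGGS linker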
# TEST NAME: protein stability index of tFT-peptide fusion (C-terminal peptide) (PSI (0-1 scale)); higher = more stable (slower turnover)
# TEST SETTINGS: genetic background: cdc53-1; temperature: 37 C
Quick list: protein stability index per entry.
METRIC: protein stability index

FICYDRILTVYY    0.564
VGVLWALIVGVR    0.226
RLVYSQKRWSLF    0.764
LFLVVVVRAGGF    0.288
CWLFCACFVRLV    0.154
MSHVCICRRLML    0.743
GGGGGGGGGGVG    0.427
TLDWKFGRGGIG    0.408
FKFGVFDFRFLC    0.686
LVMYRSALIRGH    0.529
ACCGVFFFFFWL    0.479
HCLLQDVPPTLH    0.692
QCKHIVRKIKLH    0.61
LGIPKLLCFVCT    0.432
LDFPPLRLILRL    0.609
GVRCRLVIRVLG    0.508
VFWVVFRALVGD    0.295
ERFRLYFRPGIF    0.721
LPASLSLWPLLC    0.604
RWRDGVAWVVVC    0.314
VMLIRVSRGIKC    0.463
VLPLRCSWAAQG    0.752
GAQQRVKERYIE    0.721
TKDFVIKKTKIS    0.739
VRVWLLACASKG    0.423
YVFSPWSCWASV    0.396
LMLGARVSRRIH    0.687
RVLILCLFFRWS    0.404
VVWLFGVSWCWL    0.509
PCFACIAFVLFP    0.413
CVLLRPGFLVLV    0.148
LCFLVALASMLF    0.579
PLSDPLRVILIM    0.633
LLFFGFVGSCVF    0.619
FSRFPFVKLSLV    0.731
DFHLPWPVALVW    0.144
SFCVLLQFCVLV    0.432
LVLGLYGVWLVV    0.179
SAWGQAFWCQMG    0.786
TIRKCIIKWIKI    0.581
RFFFFFPCLLAP    0.341
SFHTFFCPFFIL    0.668
RSRRNRYSRKIA    0.659
FVSAFVCLLCLV    0.628
IMWCSSVSEVQW    0.582
GKVGGRMWVWRV    0.73
VVRLRVWRLLKV    0.33
ILISVNRVVLYC    0.412
LGLCFFFYSLHS    0.58
LIFLSISFISSL    0.245
FVVIFRFSRFSA    0.477
RARLRFASLRAF    0.629
RLVIFITRYLIS    0.488
LILFMLLSFLTT    0.409
LSLGVGSDAEGG    0.736
SCIVRTLVPCPS    0.419
FVSFTVSFSVVV    0.38
WRAFVFYHHFLD    0.718
HSPRVLLPLYFR    0.133
RWCLWGTRVWVS    0.522
PLLPLPRFPLFA    0.558
VVVRARVFFHIF    0.444
RSKKIFLTKKYS    0.734
FFFWLLCAGWLL    0.622
PASYPPFIYLSI    0.288
SYVLLQSYVSLV    0.623
RFCLLFVVAGGV    0.527
EVTRMLRVVREI    0.761
VSRAVCLWRRLL    0.68
FYIWFFRLIYFF    0.441
SRGKMTIVSNQI    0.734
FPTLVRKFINAI    0.629
VSWSVSALIYLK    0.1
WPPPPPSLLLLC    0.548
CSFELSVCLMLR    0.0776
FIVVSFCFFLFF    0.382
GVSFLFVGVSLV    0.499
PPPPTPRPLLPP    0.725
SVGCCLLCFFVL    0.563
SLEACYCFVVLV    0.199
VVGVLLLYLNPF    0.507
GMLIYVIGGLSH    0.652

meta.source: the supplement of paper PMC10724198
